Target: T1, Human CD3eg linker (human)
T1 construct: Single-chain construct; also called recombinant human CD3
T1 chain: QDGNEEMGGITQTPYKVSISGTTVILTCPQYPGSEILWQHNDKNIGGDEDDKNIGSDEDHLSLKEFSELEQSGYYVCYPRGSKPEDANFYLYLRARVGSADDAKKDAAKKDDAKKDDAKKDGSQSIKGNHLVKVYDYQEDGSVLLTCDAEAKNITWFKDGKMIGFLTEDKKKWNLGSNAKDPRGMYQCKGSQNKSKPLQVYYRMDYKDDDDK
Assay: SPR; fold vs parent H183/L072
reported_metric: fold change of affinity (fold)
Respond with the bare value in fold.

binder | measurement_units | obs_value
H183/L072 VL Q90T (antibody, name in Kabat numbering, V domains shown) VH: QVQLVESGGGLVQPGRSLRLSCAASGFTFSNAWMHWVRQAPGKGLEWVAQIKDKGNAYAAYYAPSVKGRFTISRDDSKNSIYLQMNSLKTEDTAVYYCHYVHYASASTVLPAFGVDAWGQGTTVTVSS VL: DIVMTQSPLSLPVTPGEPASISCQASQELVHMNRNTYLHWYQQKPGQAPRLLIYKVSNRFPGVPDRFSGSGSGTDFTLKISRVEAEDVGVYYCATGTSVPFTFGQGTKLEIK | fold | 0

Proceed to the following item.
Ask: State its fold change of affinity for this binder: H183/L072 VL E27aH (antibody, name in Kabat numbering, V domains shown) VH: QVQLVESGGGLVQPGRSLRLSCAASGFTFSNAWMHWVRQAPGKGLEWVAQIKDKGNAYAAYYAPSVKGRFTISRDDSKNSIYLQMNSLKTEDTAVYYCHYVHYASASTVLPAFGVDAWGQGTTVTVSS VL: DIVMTQSPLSLPVTPGEPASISCQASQHLVHMNRNTYLHWYQQKPGQAPRLLIYKVSNRFPGVPDRFSGSGSGTDFTLKISRVEAEDVGVYYCAQGTSVPFTFGQGTKLEIK
Reply: 1.4
